Data origin: the supplement of paper PMC10724198

System: Saccharomyces cerevisiae;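 note: PSI is a weighted mean of sequencing reads over stability bins, variants kept only with over 10 reads, mCherry proximal and sfGFP distal, peptide attached via GGGS linker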
protocol: protein stability index of tFT-peptide fusion (C-terminal peptide) (PSI (0-1 scale)); higher = more stable (slower turnover)
studyConditions: genetic background: wild type; temperature: 37 C
measuredEndpoint: protein stability index

# example entries with known answers
residueCodes: LNQRGKRKYLIM
protein stability index: 0.561

residueCodes: LSILLFVQFFPP
protein stability index: 0.384

residueCodes: VSLLVFVVSSRV
protein stability index: 0.444

Fill in protein stability index for each of the 3 sequences listed.
1. SLARLRRICFNT
2. CRGLSWRMITCL
3. CRLRYSILWFRL

1. 0.469
2. 0.176
3. 0.155

Dear colleague, could you send me protein stability index for each of the items below? Thanks.
1. KSSIGVWTLLIR
2. VSFLLYNFLSVF
3. VFLSCFFVSWVV
4. LCRCPVGVFVLL

0.423
0.0652
0.369
0.469
